Source listed as paper PMC9653453.

# EXPERIMENTAL DETAILS: Turbidity measurement (phase transition temperature Tt, coacervation) in phosphate buffer pH 7.4
# Format: physicochemical
# EXPERIMENTAL PARAMETERS: peptide 10 mg/mL; phosphate buffer (27.4 mM Na2HPO4, 17.8 mM NaH2PO4, pH 7.4); turbidity at 400 nm, heating 0.5 ℃/min from 5 ℃; Tt = temperature at half-maximal turbidity; mean ± SE, at least three measurements
Ends that are not written are not given here.
Decision: Tt, phase transition temperature compared against 20 °C; not below it gives Met, below it gives Not met.

[[record]]
substance = "FPGVFPGVFPGVFPGV-NH2 [(FPGV)4]"
class = "Not met"

[[record]]
substance = "FPGVFPGVFPGV-NH2 [(FPGV)3]"
class = "Met"

[[record]]
substance = "VFPGVFPGVFPGVFPG-NH2 [(VFPG)4, H-(VFPG)n-NH2 (n = 4)]"
class = "Met"

[[record]]
substance = "FPGVGFPGVGFPGVGFPGVG-NH2 [(FPGVG)4, reference compound]"
class = "Met"


----------
# EXPERIMENTAL DETAILS: Turbidity measurement (phase transition temperature Tt, coacervation) in phosphate buffer pH 7.4
# Format: physicochemical
# EXPERIMENTAL PARAMETERS: peptide 5.0 mg/mL; phosphate buffer pH 7.4; turbidity at 400 nm, heating 0.5 ℃/min from 5 ℃; half-maximal turbidity; mean ± SE, at least three measurements
Ends that are not written are not given here.
PARAMETER MEASURED: Tt, phase transition temperature (°C)

[[record]]
substance = "FPGVFPGVFPGV-NH2 [(FPGV)3]"
unit_abbreviation = "°C"
test_value = 71.6

[[record]]
substance = "FPGVFPGVFPGVFPGV-NH2 [(FPGV)4]"
unit_abbreviation = "°C"
test_value = 23.4

[[record]]
substance = "FPGVGFPGVGFPGVGFPGVG-NH2 [(FPGVG)4, reference compound]"
unit_abbreviation = "°C"
test_value = 47.5

[[record]]
substance = "FPGVGFPGVGFPGVGFPGVGFPGVG-NH2 [(FPGVG)5, reference compound]"
unit_abbreviation = "°C"
test_value = 25.6

